This listing pairs molecules with measured Kp at 4 h.
- procedureDetails: Ratio of drug level in anesthetized C57BL/6J mouse brain to plasma at 10 mg/kg, ip administered as single dose measured upto 240 mins by LC-MS/MS analysis
- Type: ADME, organism-based
- measurementContext: read-out: BPR
assayEndpoint: Kp at 4 h

> print(dat)
                                        mol  endpointresult
1  CCCc1cc(O)c(C/C=C(\C)CCC=C(C)C)c(O)c1C(=O)O            0.04
2  C=C(C)[C@@H]1CCC(C)=C[C@H]1c1c(O)cc(CCCCC)c(C(=O)O)c1O            0.04
3  CCCCCc1cc(O)c(C/C=C(\C)CCC=C(C)C)c(O)c1C(=O)O            0.02

###

- procedureDetails: Cmax in anesthetized C57BL/6J mouse plasma at 10 mg/kg, ip administered as single dose measured upto 240 mins in presence of tween-80 by LC-MS/MS analysis
- Format: ADME, organism-based
- Set-up: dose 10 mg/kg, route intraperitoneal
This listing pairs molecules with measured Cmax.
assayEndpoint: Cmax (ng/mL)

> print(dat)
                                   molecule  endpointresult
1  CCCCCc1cc2c(c(O)c1C(=O)O)[C@@H]1C=C(C)CC[C@H]1C(C)(C)O2 [DELTA9-TETRAHYDROCANNABINOLIC ACID A]            6900
2  C=C(C)[C@@H]1CCC(C)=C[C@H]1c1c(O)cc(CCCCC)c(C(=O)O)c1O [CANNABIDIOLIC ACID]           17600

###

- procedureDetails: Tmax in anesthetized C57BL/6J mouse plasma at 10 mg/kg, ip administered as single dose measured upto 240 mins by LC-MS/MS analysis
- Format: ADME, organism-based
This listing pairs compounds with measured Tmax.
assayEndpoint: Tmax (min)

> print(dat)
                                   compound  endpointresult
1  CCCCCc1cc2c(c(O)c1C(=O)O)[C@@H]1C=C(C)CC[C@H]1C(C)(C)O2 [DELTA9-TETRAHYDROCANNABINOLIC ACID A]              15
2  CCCCCc1cc(O)c(C/C=C(\C)CCC=C(C)C)c(O)c1C(=O)O              45
3  CCCc1cc(O)c(C/C=C(\C)CCC=C(C)C)c(O)c1C(=O)O              15
4  C=C(C)[C@@H]1CCC(C)=C[C@H]1c1c(O)cc(CCCCC)c(C(=O)O)c1O              30

###

- procedureDetails: Cmax in anesthetized C57BL/6J mouse plasma at 10 mg/kg, ip administered as single dose measured upto 240 mins by LC-MS/MS analysis
- Assay type: ADME, organism-based
- Set-up: dose 10 mg/kg, route intraperitoneal
This listing pairs compounds with measured Cmax.
assayEndpoint: Cmax (ng/mL)

> print(dat)
                                   compound  endpointresult
1  CCCCCc1cc(O)c(C/C=C(\C)CCC=C(C)C)c(O)c1C(=O)O [CANNABIGEROLIC ACID]           63500
2  CCCCCc1cc2c(c(O)c1C(=O)O)[C@@H]1C=C(C)CC[C@H]1C(C)(C)O2 [DELTA9-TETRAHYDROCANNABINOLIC ACID A]            2800
3  CCCc1cc(O)c(C/C=C(\C)CCC=C(C)C)c(O)c1C(=O)O           34400
4  C=C(C)[C@@H]1CCC(C)=C[C@H]1c1c(O)cc(CCCCC)c(C(=O)O)c1O [CANNABIDIOLIC ACID]           29600

###

- procedureDetails: Half life in anesthetized C57BL/6J mouse brain at 10 mg/kg, ip administered as single dose measured upto 240 mins in presence of tween-80 by LC-MS/MS analysis
- Assay type: ADME, organism-based
assayEndpoint: half-life (min)

> print(dat)
                                   compound  assayendpoint  endpointresult
1  C=C(C)[C@@H]1CCC(C)=C[C@H]1c1c(O)cc(CCCCC)c(C(=O)O)c1O [CANNABIDIOLIC ACID]      half-life              67

###

This listing pairs compounds with measured Tmax.
- procedureDetails: Tmax in anesthetized C57BL/6J mouse plasma at 10 mg/kg, ip administered as single dose measured upto 240 mins in presence of tween-80 by LC-MS/MS analysis
- Format: ADME, organism-based
assayEndpoint: Tmax (min)

> print(dat)
                                   compound  endpointresult
1  CCCCCc1cc2c(c(O)c1C(=O)O)[C@@H]1C=C(C)CC[C@H]1C(C)(C)O2 [DELTA9-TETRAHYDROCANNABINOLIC ACID A]              15
2  C=C(C)[C@@H]1CCC(C)=C[C@H]1c1c(O)cc(CCCCC)c(C(=O)O)c1O              15

###

- procedureDetails: Half life in anesthetized C57BL/6J mouse plasma at 10 mg/kg, ip administered as single dose measured upto 240 mins in presence of vegetable oil by LC-MS/MS analysis
- Assay type: ADME, organism-based
This listing pairs molecules with measured half-life.
assayEndpoint: half-life (h)

> print(dat)
                                   molecule  assayendpoint  uom  endpointresult
1  C=C(C)[C@@H]1CCC(C)=C[C@H]1c1c(O)cc(CCCCC)c(C(=O)O)c1O [CANNABIDIOLIC ACID]      half-life    h            1.53
2  CCCCCc1cc2c(c(O)c1C(=O)O)[C@@H]1C=C(C)CC[C@H]1C(C)(C)O2 [DELTA9-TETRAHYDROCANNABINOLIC ACID A]      half-life    h            1.12

###

This listing pairs compounds with measured pKa.
- procedureDetails: Dissociation constant, pKa of compound
- Type: physicochemical
assayEndpoint: pKa

> print(dat)
                                   compound  assayendpoint  endpointresult
1  CCCCCc1cc2c(c(O)c1C(=O)O)[C@@H]1C=C(C)CC[C@H]1C(C)(C)O2 [DELTA9-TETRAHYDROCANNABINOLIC ACID A]            pKa            2.89
2  CCCc1cc(O)c(C/C=C(\C)CCC=C(C)C)c(O)c1C(=O)O            pKa            2.92
3  C=C(C)[C@@H]1CCC(C)=C[C@H]1c1c(O)cc(CCC)c(C(=O)O)c1O            pKa            2.91
4  CCCCCc1cc(O)c(C/C=C(\C)CCC=C(C)C)c(O)c1C(=O)O [CANNABIGEROLIC ACID]            pKa            2.92
5  CCCCCc1cc2c(c(O)c1C(=O)O)C=CC(C)(CCC=C(C)C)O2 (stereo unspecified)            pKa            2.87
6  C=C(C)[C@@H]1CCC(C)=C[C@H]1c1c(O)cc(CCCCC)c(C(=O)O)c1O [CANNABIDIOLIC ACID]            pKa            2.91

###

This listing pairs molecules with measured Tmax.
- procedureDetails: Tmax in anesthetized C57BL/6J mouse brain at 10 mg/kg, ip administered as single dose measured upto 240 mins by LC-MS/MS analysis
- Type: ADME, organism-based
assayEndpoint: Tmax (min)

> print(dat)
                                   molecule  uom  endpointresult
1  CCCCCc1cc(O)c(C/C=C(\C)CCC=C(C)C)c(O)c1C(=O)O [CANNABIGEROLIC ACID]  min              30
2  CCCc1cc(O)c(C/C=C(\C)CCC=C(C)C)c(O)c1C(=O)O  min              90
3  C=C(C)[C@@H]1CCC(C)=C[C@H]1c1c(O)cc(CCCCC)c(C(=O)O)c1O [CANNABIDIOLIC ACID]  min              45

###

- procedureDetails: AUC in anesthetized C57BL/6J mouse plasma at 5 mg/kg, ip administered as single dose measured upto 240 mins by LC-MS/MS analysis
- Assay type: ADME, organism-based
- Parameters: dose 5 mg/kg, time < 4 hr, route intraperitoneal
This listing pairs compounds with measured AUC at 4 h.
assayEndpoint: AUC at 4 h (ng·h/mL)

> print(dat)
                                   compound  endpointresult
1  CCCCCc1cc2c(c(O)c1C(=O)O)C=CC(C)(CCC=C(C)C)O2 (configuration not stated)            2880
2  C=C(C)[C@@H]1CCC(C)=C[C@H]1c1c(O)cc(CCC)c(C(=O)O)c1O           24800
